All values here come from ChEMBL document CHEMBL1132976.

Reported Ki values for the following molecules.
# SUBJECT_OF_TEST: 5-hydroxytryptamine receptor 2C (Homo sapiens, UniProt P28335)
# Sequence (P28335 whole entry): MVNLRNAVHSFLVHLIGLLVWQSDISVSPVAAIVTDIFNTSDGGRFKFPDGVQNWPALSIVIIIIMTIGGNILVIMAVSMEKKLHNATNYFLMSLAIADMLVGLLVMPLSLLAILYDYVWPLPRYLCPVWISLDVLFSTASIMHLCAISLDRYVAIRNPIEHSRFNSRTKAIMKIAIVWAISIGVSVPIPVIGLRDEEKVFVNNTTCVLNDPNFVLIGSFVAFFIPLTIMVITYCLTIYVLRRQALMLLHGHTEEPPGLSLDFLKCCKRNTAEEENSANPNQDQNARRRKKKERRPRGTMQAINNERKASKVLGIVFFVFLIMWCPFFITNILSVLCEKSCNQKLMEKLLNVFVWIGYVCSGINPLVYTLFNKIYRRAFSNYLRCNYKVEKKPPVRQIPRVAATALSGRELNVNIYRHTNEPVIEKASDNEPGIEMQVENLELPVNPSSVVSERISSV
# PROTOCOL: Binding affinity towards human cloned 5-hydroxytryptamine receptor 2C in HEK293 cells, using [3H]mesulergine as radioligand.

{"MOLECULE": "CCc1cc(NC(=O)N2CCc3cc(OC)c(C(F)(F)F)cc32)cc(-c2cccnc2)c1", "Ki (nM)": 0.631}
{"MOLECULE": "COc1cc2c(cc1C(F)(F)F)N(C(=O)Nc1cccc(-c3cccnc3C)c1)CC2", "Ki (nM)": 5.01}
{"MOLECULE": "COc1cc2c(cc1C(F)(F)F)N(C(=O)Nc1cc(F)c(C)c(-c3cccnc3)c1)CC2", "Ki (nM)": 0.631}
{"MOLECULE": "Cc1cc2c(cc1C(F)(F)F)N(C(=O)Nc1ccc(Oc3cccnc3C)nc1)CC2 [SB-243213]", "Ki (nM)": 1}
{"MOLECULE": "COc1ccc(NC(=O)N2CCc3cc(OC)c(C(F)(F)F)cc32)cc1-c1cccnc1", "Ki (nM)": 0.501}
{"MOLECULE": "COc1cc2c(cc1C(F)(F)F)N(C(=O)Nc1ccc(C)c(-c3cccnc3)c1)CC2", "Ki (nM)": 1}
{"MOLECULE": "COc1cc2c(cc1C(F)(F)F)N(C(=O)Nc1cc(Br)cc(-c3cccnc3)c1)CC2", "Ki (nM)": 2}
{"MOLECULE": "COc1cc2c(cc1C(F)(F)F)N(C(=O)Nc1ccc(Oc3cccnc3)nc1)CC2", "Ki (nM)": 1.26}
{"MOLECULE": "COc1cc2c(cc1C(F)(F)F)N(C(=O)Nc1cccc(-c3c(C)ccnc3C)c1)CC2", "Ki (nM)": 2.51}

====

# SUBJECT_OF_TEST: UniProt P28223
# Sequence (P28223 whole entry): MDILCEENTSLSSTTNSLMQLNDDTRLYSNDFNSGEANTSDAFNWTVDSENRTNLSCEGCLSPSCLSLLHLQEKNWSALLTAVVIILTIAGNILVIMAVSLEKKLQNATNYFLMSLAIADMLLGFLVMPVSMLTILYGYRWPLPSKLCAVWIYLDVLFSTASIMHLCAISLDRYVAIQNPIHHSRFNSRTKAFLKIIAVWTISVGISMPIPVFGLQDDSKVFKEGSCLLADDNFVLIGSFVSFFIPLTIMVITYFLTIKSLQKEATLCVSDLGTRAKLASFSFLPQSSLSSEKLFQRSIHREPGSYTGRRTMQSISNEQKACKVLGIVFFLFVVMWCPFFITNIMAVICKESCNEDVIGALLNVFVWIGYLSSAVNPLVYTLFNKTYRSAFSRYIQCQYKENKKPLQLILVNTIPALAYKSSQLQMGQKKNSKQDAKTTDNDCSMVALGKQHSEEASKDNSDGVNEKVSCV
# PROTOCOL: Binding affinity towards human cloned 5-hydroxytryptamine receptor 2A in HEK293 cells, using [3H]ketanserin as radioligand.
pKi: −log10 of the molar value.
Reported pKi values for the following compounds.

{"STRUCTURE_SMILES": "COc1cc2c(cc1C(F)(F)F)N(C(=O)Nc1cccc(-c3cccnc3)c1C)CC2", "READOUT_RELATION": "=", "pKi": 6.40}
{"STRUCTURE_SMILES": "COc1cc2c(cc1C(F)(F)F)N(C(=O)Nc1ccc(-c3cccnc3)cc1)CC2", "READOUT_RELATION": "=", "pKi": 5.40}
{"STRUCTURE_SMILES": "COc1cc2c(cc1C(F)(F)F)N(C(=O)Nc1cncc(-c3ccncc3)c1)CC2", "READOUT_RELATION": "=", "pKi": 7.20}
{"STRUCTURE_SMILES": "COc1cc2c(cc1C(F)(F)F)N(C(=O)Nc1ccc(Cl)c(-c3cnccc3C)c1)CC2", "READOUT_RELATION": "<", "pKi": 6.00}
{"STRUCTURE_SMILES": "COc1cc2c(cc1C(F)(F)F)N(C(=O)Nc1cccc(-c3c(C)ccnc3C)c1)CC2", "READOUT_RELATION": "=", "pKi": 6.70}
{"STRUCTURE_SMILES": "COc1cc2c(cc1C(F)(F)F)N(C(=O)Nc1ccc(-c3ccncc3)cc1)CC2", "READOUT_RELATION": "<", "pKi": 5.00}
{"STRUCTURE_SMILES": "COc1cc2c(cc1C(F)(F)F)N(C(=O)Nc1ccc(C)c(-c3cccnc3)c1)CC2", "READOUT_RELATION": "=", "pKi": 5.30}
{"STRUCTURE_SMILES": "COc1cc2c(cc1C(F)(F)F)N(C(=O)Nc1cncc(-c3cc(F)cc(F)c3)c1)CC2", "READOUT_RELATION": "=", "pKi": 5.90}
{"STRUCTURE_SMILES": "COc1cc2c(cc1C(F)(F)F)N(C(=O)Nc1cc(-c3cccnc3)ccc1F)CC2", "READOUT_RELATION": "=", "pKi": 5.10}
